- assaySystem: CYP-3A4 (Homo sapiens (Human), UniProt P08684)
- Sequence (P08684 whole entry): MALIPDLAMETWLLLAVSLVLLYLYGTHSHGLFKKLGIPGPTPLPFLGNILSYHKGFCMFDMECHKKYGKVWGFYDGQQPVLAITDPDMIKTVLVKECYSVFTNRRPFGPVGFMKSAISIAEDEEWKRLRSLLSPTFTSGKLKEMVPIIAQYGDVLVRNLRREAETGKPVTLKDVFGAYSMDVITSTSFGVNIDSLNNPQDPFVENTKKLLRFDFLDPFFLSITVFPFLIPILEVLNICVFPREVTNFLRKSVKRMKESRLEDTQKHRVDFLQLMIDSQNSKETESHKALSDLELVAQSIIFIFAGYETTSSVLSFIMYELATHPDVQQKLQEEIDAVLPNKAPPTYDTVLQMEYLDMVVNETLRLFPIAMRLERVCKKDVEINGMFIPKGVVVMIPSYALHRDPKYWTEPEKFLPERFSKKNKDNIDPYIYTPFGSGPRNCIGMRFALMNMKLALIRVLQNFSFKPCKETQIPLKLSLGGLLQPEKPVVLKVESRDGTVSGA
- experimentDescription: CYP panel profile: P450 inhibition, CYP-3A4
- Assay type: in vitro ADME
- experimentalContext: human liver microsomes
Lab note: anything with IC50 below 4 µM is marked Yes; values at 4 µM or higher are marked No.

Clc1ccc2[nH]c(-c3cccc4ccccc34)cc2c1 : No
COc1ccc(C(=O)n2c(-c3cccc4ccccc34)nc3ccc(Cl)cc32)cc1 : Yes
O=C(c1ccccc1)n1c(-c2cccc3ccccc23)nc2cc(Cl)c(Cl)cc21 : Yes
O=C(c1c(F)cc(Br)cc1F)n1c(-c2cccc3ccccc23)nc2cc(Cl)ccc21 : No
O=C(c1ccc(F)cc1)n1c(-c2cccc3ccccc23)nc2ccc(Cl)cc21 : No
O=C(c1ccccc1)n1c(-c2cccc3ccccc23)nc2cc(Cl)ccc21 : Yes
Clc1ccc2c(c1)nc1n2Cc2cccc3cccc-1c23 : No
O=C(c1ccc(F)c(F)c1)n1c(-c2cccc3ccccc23)cc2cc(Cl)ccc21 : No

Next, consider the following compound.
Lookup: Lab note: confirm whether the reported IC50 for this compound is below 4 µM, equality not counting. compound: `O=C(C1CCCCC1)n1c(-c2cccc3ccccc23)nc2ccc(Cl)cc21`
Found: Yes

---

- experimentDescription: in vitro
- experimentalContext: mouse, microsomes, pH 7.4
valueType: half-life at 1 μM (min)
Answers are plain numbers, in min.

O=C(c1cccc2ccccc12)c1c[nH]c2cc(Cl)c(Cl)cc12 : 10.7

Lookup: Would you mind telling me what half-life at 1 μM value was observed for `O=C(c1ccc2ccccc2c1)c1c[nH]c2ccc(Cl)cc12` ?
Found: 27.5

---

Would you kindly list Fold @ 100 nM for each of these molecules?
- assaySystem: aryl hydrocarbon receptor (AhR) (Mus musculus (Mouse), UniProt P30561)
- Sequence (P30561 10-805): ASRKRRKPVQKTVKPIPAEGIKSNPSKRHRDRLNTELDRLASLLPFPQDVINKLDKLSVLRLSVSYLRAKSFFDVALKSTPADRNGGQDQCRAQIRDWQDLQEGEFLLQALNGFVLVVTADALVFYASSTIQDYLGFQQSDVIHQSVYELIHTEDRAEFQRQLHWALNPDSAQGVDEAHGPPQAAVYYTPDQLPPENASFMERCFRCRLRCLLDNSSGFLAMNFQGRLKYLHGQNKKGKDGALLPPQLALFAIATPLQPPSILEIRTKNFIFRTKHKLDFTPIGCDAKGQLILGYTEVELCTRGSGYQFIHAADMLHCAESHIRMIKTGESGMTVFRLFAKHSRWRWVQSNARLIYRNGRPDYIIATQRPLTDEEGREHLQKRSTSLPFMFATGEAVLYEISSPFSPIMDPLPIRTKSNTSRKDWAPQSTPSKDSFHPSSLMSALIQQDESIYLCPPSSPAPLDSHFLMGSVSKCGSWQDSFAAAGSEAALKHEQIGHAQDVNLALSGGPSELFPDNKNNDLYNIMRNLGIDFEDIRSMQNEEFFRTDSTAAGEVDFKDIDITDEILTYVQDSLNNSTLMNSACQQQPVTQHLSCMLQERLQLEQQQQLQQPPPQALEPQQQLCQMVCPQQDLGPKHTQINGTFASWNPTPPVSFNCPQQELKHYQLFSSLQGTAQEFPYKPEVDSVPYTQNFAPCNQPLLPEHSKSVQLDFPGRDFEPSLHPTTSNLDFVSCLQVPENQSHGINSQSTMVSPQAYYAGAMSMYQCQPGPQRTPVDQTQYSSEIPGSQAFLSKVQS
- Sequence (P53762 whole entry partner): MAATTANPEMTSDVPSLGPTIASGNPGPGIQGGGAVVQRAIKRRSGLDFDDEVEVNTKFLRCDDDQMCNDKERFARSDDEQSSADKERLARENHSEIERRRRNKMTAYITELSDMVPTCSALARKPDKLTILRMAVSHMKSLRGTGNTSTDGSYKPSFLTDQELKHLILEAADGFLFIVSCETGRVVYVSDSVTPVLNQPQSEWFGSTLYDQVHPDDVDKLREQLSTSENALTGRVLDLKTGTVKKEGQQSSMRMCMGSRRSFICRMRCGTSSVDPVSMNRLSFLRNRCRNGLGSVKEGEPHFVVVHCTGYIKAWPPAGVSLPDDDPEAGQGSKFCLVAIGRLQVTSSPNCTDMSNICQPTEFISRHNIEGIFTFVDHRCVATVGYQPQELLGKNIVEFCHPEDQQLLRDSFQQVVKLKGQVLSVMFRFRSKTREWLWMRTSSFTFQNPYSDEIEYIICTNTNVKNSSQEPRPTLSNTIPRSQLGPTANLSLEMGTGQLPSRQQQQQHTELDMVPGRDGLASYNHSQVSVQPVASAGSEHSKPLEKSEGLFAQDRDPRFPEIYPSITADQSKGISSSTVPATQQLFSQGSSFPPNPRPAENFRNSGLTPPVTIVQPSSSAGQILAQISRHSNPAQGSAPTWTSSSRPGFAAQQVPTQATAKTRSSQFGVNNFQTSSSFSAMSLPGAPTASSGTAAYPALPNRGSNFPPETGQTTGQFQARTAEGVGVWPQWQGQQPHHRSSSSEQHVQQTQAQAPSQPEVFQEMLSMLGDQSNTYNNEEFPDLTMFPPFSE
- experimentDescription: AhR ligand screening: AhRE-luciferase reporter in transfected Hepa1 cells
- Type: cell-based
- experimentalContext: fold change of luciferase expression at 100 nM test compound relative to vehicle (0.1% DMSO)
A bare number is not enough; add the unit after it.

I would be grateful if you could provide Fold @ 100 nM for each of the following entries.
1. COc1ccc(C(=O)n2c(-c3cccc4ccccc34)nc3ccc(Cl)cc32)cc1
2. O=C(c1ccccc1)n1c(-c2cccc(C(F)(F)F)c2)nc2ccc(Cl)cc21
3. Cc1ccc(C(=O)n2c(-c3cccc4ccccc34)nc3cc(Cl)ccc32)cc1
4. O=C(c1ccc(F)c(F)c1)n1c(-c2cccc(-c3ccccc3)c2)nc2ccc(Cl)cc21
5. Cc1ccc2c(c1)nc(-c1cccc3ccccc13)n2C(=O)c1ccccc1
6. O=C(c1ccc(F)c(F)c1)n1c(-c2cccc3ccccc23)nc2cc(Cl)ccc21 [Compound 530]

Found:
1. 39 fold
2. 3 fold
3. 23 fold
4. 1 fold
5. 2 fold
6. 39 fold

Hey, can you go through the list below and give me Fold @ 100 nM for every item?
1. O=C(c1ccc2nc(-c3cccc4ccccc34)n(Cc3ccc(F)c(F)c3)c2c1)N1CCOCC1
2. O=C(c1cccc(Cl)c1Cl)c1c[nH]c2ccc(Cl)cc12

Found:
1: 1 fold; 2: 1 fold

---

- assaySystem: aryl hydrocarbon receptor (AhR) (Mus musculus (Mouse))
- experimentDescription: AhR ligand screening: AhRE-luciferase reporter in transfected Hepa1 cells
- Type: cell-based
- experimentalContext: fold change of luciferase expression at 10 uM test compound relative to vehicle (0.1% DMSO)
valueType: Fold @ 10 uM (fold)
One number for each entry, in fold.

# annotated cases, reported Fold @ 10 uM shown
CN(C)c1ccc(C(=O)c2c[nH]c3ccc(Cl)cc23)cc1 : 21
Clc1ccc2c(c1)nc1n2Cc2ccccc2-1 : 18
O=C(c1ccc(F)c(F)c1)n1c(-c2ccc(-c3ccccc3)cc2)nc2ccc(Cl)cc21 : 2

Hi there! I need Fold @ 10 uM for each item below, if you can.
1. O=C(c1ccc(F)cc1)n1c(-c2cccc3ccccc23)nc2cc(Cl)ccc21
2. Cn1cc(C(=O)c2cccc3ccccc23)c2cc(Cl)ccc21
3. O=C(c1ccc(SC(F)(F)F)cc1)n1c(-c2cccc3ccccc23)nc2cc(Cl)ccc21
4. O=C(c1ccc(F)c(F)c1)n1c(-c2cccc3ccccc23)nc2ccc(Br)cc21

Found:
[18, 6, 31, 30]

Consider the following items and state reported Fold @ 10 uM for each.
1. O=C(c1ccccc1)n1c(-c2ccc(F)c(Cl)c2)nc2cc(Cl)ccc21
2. N#Cc1ccc(C(=O)n2c(-c3cccc4ccccc34)nc3cc(Cl)ccc32)cc1
3. Cc1ccc(C(=O)c2c[nH]c3ccc(Cl)cc23)cc1
4. O=C(c1ccc(F)c(F)c1)n1c(-c2cccc(-c3ccccc3)c2)nc2ccc(Cl)cc21
5. O=C(c1ccc2c(c1)OCCO2)n1c(-c2cccc3ccccc23)nc2cc(Cl)ccc21 [Compound 851]
6. O=C(C1CCCCC1)n1c(-c2cccc3ccccc23)nc2cc(Cl)ccc21
7. O=C(c1ccc(F)c(F)c1)n1c(-c2cc3ccccc3o2)nc2cc(Cl)ccc21

Found:
1: 14; 2: 44; 3: 2; 4: 1; 5: 29; 6: 50; 7: 75

Batch lookup, Fold @ 10 uM per entry.
1. O=C(c1ccc(Cl)cc1Cl)c1c[nH]c2ccc(Cl)cc12
2. O=C(c1ccc2c(c1)nc(-c1cccc3ccccc13)n2Cc1ccc(SC(F)(F)F)cc1)N1CCCCC1
3. O=C(c1ccc(F)c(F)c1)n1c(-c2c3ccccc3cc3ccccc23)nc2cc(Cl)ccc21

Found:
17
4
21

---

- assaySystem: aryl hydrocarbon receptor (AhR) (Mus musculus (Mouse), UniProt P30561)
- experimentDescription: AhR ligand screening: AhRE-luciferase reporter in transfected Hepa1 cells
- Format: cell-based
- experimentalContext: luciferase expression at 100 nM test compound relative to 100 nM benchmark compound 11-cl-BBQ
Param threshold (0.1 fold) applies to Fold relative to benchmark @ 100 nM; output y when value >= threshold, n when value < threshold.

# count of solved cases: 2
COC(=O)c1ccc2nc(-c3cccc4ccccc34)n(Cc3ccc(Cl)cc3)c2c1 [Compound 1407] : n
COC(=O)c1ccc2nc(-c3cccc4ccccc34)n(S(=O)(=O)c3ccc4ccccc4c3)c2c1 [Compound 1384] : n

Lookup: Assess whether reported Fold relative to benchmark @ 100 nM for COc1ccc(C(=O)n2c(-c3cccc(C(F)(F)F)c3)nc3cc(Cl)ccc32)cc1 [Compound 764] sits at 0.1 fold or higher.
Found: n

Lookup: Next: Clc1ccc2c(c1)nc(-c1cccc3ccccc13)n2Cc1ccncc1 [Compound 876]
Found: n

---

- experimentDescription: Liver microsomal stability, mouse
- experimentalContext: mouse liver microsomes, 30 min, 1 μM compound, 0.5 mg/ml protein
Kindly supply the reported Rem @ MLM × 30 min values for the records listed here.
Give bare numbers, in %.

The examples below pair each entry with its known result.
CCc1ccc(S(=O)(=O)n2c(-c3cccc4ccccc34)nc3ccc(Cl)cc32)cc1 [Compound 776] : 23.9
O=C(C1CC1)n1c(-c2cccc3ccccc23)nc2ccc(Cl)cc21 [Compound 774] : 28.2
O=c1c2cccc3cccc(c32)c2nc3cc(Cl)ccc3n12 [Compound 362] : 12.0

Now for the compound whose Rem @ MLM × 30 min we want.
Lookup: Name the recorded Rem @ MLM × 30 min for O=C(c1cccc2ccccc12)C1CN(C(=O)c2ccccc2)c2ccc(Cl)cc21 (stereo not shown) [Compound 521] .
Found: 64.6

---

- assaySystem: aryl hydrocarbon receptor (AhR) (Mus musculus (Mouse))
- experimentDescription: AhR ligand screening: AhRE-luciferase reporter in transfected Hepa1 cells
- Format: cell-based
- experimentalContext: fold change of luciferase expression at 100 nM test compound relative to vehicle (0.1% DMSO)
With a cut-off of 2 fold, any Fold @ 100 nM strictly below it is called 1; any Fold @ 100 nM meeting it or above is called 0.

// known answers, use as guide
Cc1ccc(C(=O)n2c(-c3cccc4ccccc34)nc3ccc(Cl)cc32)cc1 [Compound 698] : 0
O=C(c1cccc2ccccc12)c1c[nH]c2cc(Cl)ccc12 [Compound 433] : 1
O=C(c1ccc2nc(-c3cccc4ccccc34)n(S(=O)(=O)c3cccc(F)c3)c2c1)N1CCCCC1 [Compound 1369] : 1

# evaluate next
Lookup: Here's an entry: CCc1ccc(S(=O)(=O)n2c(-c3cccc4ccccc34)nc3cc(Cl)ccc32)cc1 [Compound 775] . Is its Fold @ 100 nM below 2 fold?
Found: 0

---

- experimentDescription: In vivo PK study, intravenous and oral administration in male mice
- Parameters: species or system mouse
- experimentalContext: mouse, IV 2 mg/Kg, plasma
For each of the molecules below, state its AUC(0-t).
Answers are plain numbers, in ng·h/mL.

Clc1ccc2[nH]c(-c3cccc4ccccc34)cc2c1 : 451

Lookup: Give its AUC(0-t) value. Item: `O=c1c2cccc3cccc(c32)c2nc3cc(Cl)ccc3n12`
Found: 451

---

- assaySystem: UniProt P30561
- experimentDescription: AhR ligand screening: AhRE-luciferase reporter in transfected Hepa1 cells
- Format: cell-based
- experimentalContext: fold change of luciferase expression at 100 nM test compound relative to vehicle (0.1% DMSO)
valueType: Fold @ 100 nM (fold)
Give bare numbers, in fold.

Some compounds with known Fold @ 100 nM results, for comparison:
Fc1ccc(Cn2c(-c3cccc4ccccc34)nc3cc(Cl)ccc32)cc1F : 1
COC(=O)c1ccc2nc(-c3cccc4ccccc34)n(C(=O)c3ccc(OC(F)(F)F)cc3)c2c1 : 2
O=S(=O)(c1ccc2ccccc2c1)n1c(-c2cccc3ccccc23)nc2ccc(Cl)cc21 : 31

Lookup: Give the measured Fold @ 100 nM of `COC(=O)c1ccc2nc(-c3cccc4ccccc34)n(S(=O)(=O)c3ccc(C#N)cc3)c2c1` .
Found: 3
